# tested.target: T1, cyno FcRn/b2M (cyno, UniProt Q8SPV9 24-297; Q8SPW0 21-119, biotinylated)
# T1 construct: bought recombinant biotinylated protein (Immunitrack ITF05 or ACRO FCM-C82W5); also called cFcRn; cFcRn/cb2M
# T1 sequence (Q8SPV9 24-297 limits assumed, chain 1 of 2): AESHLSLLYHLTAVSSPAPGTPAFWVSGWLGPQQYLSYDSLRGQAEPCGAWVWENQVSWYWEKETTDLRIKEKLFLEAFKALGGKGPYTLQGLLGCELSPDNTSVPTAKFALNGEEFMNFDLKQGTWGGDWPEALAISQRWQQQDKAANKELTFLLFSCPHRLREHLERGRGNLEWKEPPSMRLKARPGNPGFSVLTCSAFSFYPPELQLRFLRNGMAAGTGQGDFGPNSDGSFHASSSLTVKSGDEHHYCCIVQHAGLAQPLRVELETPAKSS
# T1 sequence (Q8SPW0 21-119 limits assumed, chain 2 of 2): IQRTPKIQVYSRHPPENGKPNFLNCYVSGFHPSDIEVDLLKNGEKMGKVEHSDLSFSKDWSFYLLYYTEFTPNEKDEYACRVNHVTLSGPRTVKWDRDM
# assay.method.text: SPR pH 6.0;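 also: surface plasmon resonance kinetics at 25 °C, diluted periplasmic extracts injected over immobilized ligand surfaces, 120 s association then 600–3600 s dissociation, running buffer containing 150 mM NaCl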
Hi! Just check whether koff is below 0.0009 s⁻¹. Below gives fulfilled, equal or above gives not fulfilled.

>  <binder>
T0263018B11 S52Q (VHH, name in Kabat numbering, FLAG3-His6 tagged) VHH: EVQLVESGGGVVQPGGSLRLSCAASGFTFSSYAMYWVRQAPGKGLEWVSAIQSGGGSTDYADSVKGRFTISRDNSKNTLYLQMNSLRPEDTALYYCAADTLYTSLTWYSYWGQGTLVTVSS

>  <cat>
not fulfilled

$$$$
>  <binder>
T0263018B11 T57W (VHH, name in Kabat numbering, FLAG3-His6 tagged) VHH: EVQLVESGGGVVQPGGSLRLSCAASGFTFSSYAMYWVRQAPGKGLEWVSAISSGGGSWDYADSVKGRFTISRDNSKNTLYLQMNSLRPEDTALYYCAADTLYTSLTWYSYWGQGTLVTVSS

>  <cat>
fulfilled

$$$$
>  <binder>
T0263018B11 T28Y (VHH, name in Kabat numbering, FLAG3-His6 tagged) VHH: EVQLVESGGGVVQPGGSLRLSCAASGFYFSSYAMYWVRQAPGKGLEWVSAISSGGGSTDYADSVKGRFTISRDNSKNTLYLQMNSLRPEDTALYYCAADTLYTSLTWYSYWGQGTLVTVSS

>  <cat>
fulfilled

$$$$
>  <binder>
T0263018B11 S31T (VHH, name in Kabat numbering, FLAG3-His6 tagged) VHH: EVQLVESGGGVVQPGGSLRLSCAASGFTFSTYAMYWVRQAPGKGLEWVSAISSGGGSTDYADSVKGRFTISRDNSKNTLYLQMNSLRPEDTALYYCAADTLYTSLTWYSYWGQGTLVTVSS

>  <cat>
fulfilled

$$$$
